Data provenance: patent US20170037110A1

# measuredTarget: T1, HLA-A*02:01 (human)
# T1 construct: monomers captured on streptavidin plates; also called MHC class I
# assayText: UV peptide exchange ELISA
# Source text: Candidate peptides for T cell based therapies according to the present invention were further tested for their MHC binding capacity (affinity). The individual peptide-MHC complexes were produced by UV-ligand exchange, where a UV-sensitive peptide is cleaved upon UV-irradiation, and exchanged with the peptide of interest as analyzed. Only peptide candidates that can effectively bind and stabilize the peptide-receptive MHC molecules prevent dissociation of the MHC complexes. […]
Assign peptide exchange yield to each entry below.

> print(dat)
        binder     result
1    SLVGLLLYL      ≥ 75%
2  FLPPEHTIVYI  50 to 75%
3   KLKPGDLVGV  50 to 75%

Moving on to another binder below.
Q. Name the reported peptide exchange yield value associated with the binder YLNHLEPPV
A. 50 to 75%
